target: rat α1β2γ2L type GABAA receptors expressed in Xenopus laevis oocytes (Rattus norvegicus, UniProt P62813+P63138); construct: expressed in transfected cells; host or cells: Xenopus laevis oocytes; assay: Oocyte electrophysiology: potentiation of GABA-mediated chloride currents and direct gating; format: cell-based; settings: ratio of currents in presence/absence of 1 μM compound; 2 μM GABA; ± SEM, N ≥4
Sequence (P62813 28-455): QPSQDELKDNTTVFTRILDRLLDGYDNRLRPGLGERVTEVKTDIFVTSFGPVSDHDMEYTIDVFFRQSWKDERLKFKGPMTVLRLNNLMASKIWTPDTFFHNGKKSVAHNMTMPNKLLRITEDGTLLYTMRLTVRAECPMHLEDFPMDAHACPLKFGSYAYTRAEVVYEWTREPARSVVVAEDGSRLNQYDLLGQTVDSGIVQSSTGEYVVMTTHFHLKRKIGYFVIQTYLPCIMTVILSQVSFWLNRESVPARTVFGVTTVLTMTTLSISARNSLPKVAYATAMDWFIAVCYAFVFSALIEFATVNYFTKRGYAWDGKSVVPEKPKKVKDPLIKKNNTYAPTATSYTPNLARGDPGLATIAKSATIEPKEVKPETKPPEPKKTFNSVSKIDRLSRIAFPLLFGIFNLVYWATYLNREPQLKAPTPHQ
Sequence (P63138 26-474): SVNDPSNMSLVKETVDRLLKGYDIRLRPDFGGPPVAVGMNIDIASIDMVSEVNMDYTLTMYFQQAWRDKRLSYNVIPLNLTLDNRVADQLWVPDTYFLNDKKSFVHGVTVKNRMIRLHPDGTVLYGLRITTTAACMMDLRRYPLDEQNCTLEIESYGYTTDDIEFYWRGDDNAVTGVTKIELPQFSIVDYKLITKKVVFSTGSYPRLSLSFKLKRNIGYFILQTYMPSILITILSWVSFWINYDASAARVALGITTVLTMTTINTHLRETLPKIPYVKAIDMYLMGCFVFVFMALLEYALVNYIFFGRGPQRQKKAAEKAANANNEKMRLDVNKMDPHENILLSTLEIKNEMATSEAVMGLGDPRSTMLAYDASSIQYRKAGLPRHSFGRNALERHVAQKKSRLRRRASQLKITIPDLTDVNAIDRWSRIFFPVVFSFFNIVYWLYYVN
Sequence (P18508 with tags, fused parts or gaps INS375LLRMFSFK partner): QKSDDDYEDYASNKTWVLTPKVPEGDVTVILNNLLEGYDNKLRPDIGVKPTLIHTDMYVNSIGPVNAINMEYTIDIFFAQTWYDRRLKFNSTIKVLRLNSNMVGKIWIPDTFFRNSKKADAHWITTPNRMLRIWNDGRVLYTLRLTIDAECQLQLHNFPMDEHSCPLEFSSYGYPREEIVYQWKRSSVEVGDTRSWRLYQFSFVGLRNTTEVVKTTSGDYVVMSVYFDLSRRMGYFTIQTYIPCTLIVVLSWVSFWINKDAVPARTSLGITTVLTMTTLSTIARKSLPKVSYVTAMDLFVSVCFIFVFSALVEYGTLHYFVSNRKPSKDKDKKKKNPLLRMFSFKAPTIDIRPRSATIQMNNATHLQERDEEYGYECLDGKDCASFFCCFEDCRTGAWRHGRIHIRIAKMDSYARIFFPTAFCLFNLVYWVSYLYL
Below is a list of entries, each paired with its recorded oocyte electrophysiology 1 μM value.
REPORTED_PROPERTY: oocyte electrophysiology 1 μM

>>> val("COC[C@]12CCC(O)CC1CC[C@@H]1[C@@H]2CC[C@]2(C)C(=O)CC[C@@H]12 (stereo in doubt) [Compound 30]")
0.88
>>> val("COC[C@]12CC[C@@H](O)C[C@@H]1CC[C@H]1[C@@H]3CC[C@H](C(=O)CO)[C@@]3(C)CC[C@@H]12 [Compound 20]")
2.76
>>> val("COC[C@]12CC[C@H](O)CC1=CC[C@@H]1[C@@H]2CC[C@]2(C)[C@@H](OC)CC[C@@H]12 [Compound 26]")
0.76
>>> val("COC[C@]12CC[C@@H](O)C[C@@H]1CC[C@H]1[C@@H]3CC[C@H]([N+](=O)[O-])[C@@]3(C)CC[C@@H]12 [Compound 29]")
15.7
>>> val("COC[C@]12CC[C@@H](O)C[C@@H]1CC[C@@H]1[C@@H]2CC[C@@]2(C)[C@H]1CC[C@@]21CO1 [Compound 12]")
7.40
>>> val("COC[C@]12CC[C@@H](O)C[C@@H]1CC[C@@H]1[C@@H]2CC[C@]2(C)C(C#N)=CC[C@@H]12 [Compound 15]")
5.34
